Test: Effect of pH value on the stability of the solution (purity)
Format: physicochemical
Settings: day 28, pH 6.0, 7% in 25% ethanol, 25° C.
metric: Purity(%) from day 0-28
The answer is to be given in %; state only the numeric part.

For the compound CC(C)Cc1ccc([C@@H](C)C(=O)OC[C@@H]2CCCN2)cc1.Cl [C-7] , give its reported Purity(%) from day 0-28. 86.2

For the compound CCCCN(CCCC)CCOC(=O)C(C)c1ccc(CC(C)C)cc1.Cl (racemic) [C-6] , give its reported Purity(%) from day 0-28. 89.2

For the compound CCN(CC)CCOC(=O)C(C)c1ccc(CC(C)C)cc1.Cl (racemic) [C-4] , give its reported Purity(%) from day 0-28. 89.9

For the compound CC(C)Cc1ccc([C@@H](C)C(=O)OCCN2CCCC2)cc1.Cl (racemic) [C-9] , give its reported Purity(%) from day 0-28. 89.0

For the compound CC(C)Cc1ccc([C@@H](C)C(=O)OCCC2CCNCC2)cc1.Cl (racemic) [C-8] , give its reported Purity(%) from day 0-28. 87.3

***
For the compound CC(C)Cc1ccc(C(C)C(=O)OCCN2CCCCC2)cc1.Cl (racemic) [C-10] , give its reported Purity(%) from day 0-28. 87.9

For the compound CC(C)Cc1ccc([C@@H](C)C(=O)OCCN(C)C)cc1.Cl (racemic) [C-5] , give its reported Purity(%) from day 0-28. 85.3

###

Listed here: items and their measured Purity(%) from day 0-14.
Experiment: Effect of pH value on the stability of the solution (purity)
Format: physicochemical
Details: day 14, pH 1.0, 7% in water, 25° C.
Provide the measurement as a number trailed by its unit.

For the compound CCN(CC)CCOC(=O)c1ccccc1OC(C)=O.O=C(O)c1ccccc1 , give its reported Purity(%) from day 0-14. 60.5 ± 0.3%

For the compound CCN(CC)CCOC(=O)c1ccccc1OC(C)=O.O=C(O)/C=C\C(=O)O , give its reported Purity(%) from day 0-14. 59.1 ± 0.4%

For the compound CCCCC(=O)O.CCN(CC)CCOC(=O)c1ccccc1OC(C)=O , give its reported Purity(%) from day 0-14. 58.1 ± 0.3%

***
For the compound CC(O)C(=O)O.CCN(CC)CCOC(=O)c1ccccc1OC(C)=O , give its reported Purity(%) from day 0-14. 57.9 ± 0.4%

###

Test: Effect of concentration on the stability of the solution (purity over time)
Conditions: 5 wt % in 50% ethanol, 25° C.
Listed here: items and their measured Purity(%) at Day 14.
The answer is to be given in %; state only the numeric part.

Solved cases below.
For the compound CC(C)OC(=O)c1ccccc1 [Isopropyl benzoate, reference compound] , give its reported Purity(%) at Day 14. 98.4

For the compound CC(C)(C)OC(=O)C(N)Cc1ccccc1 (centres unmarked) [t-Butyl 2-amino-3-phenylpropanoate, reference compound] , give its reported Purity(%) at Day 14. 90.0

For the compound CC(C)OC(=O)C(N)Cc1ccccc1 (centres unmarked) [Isopropyl 2-amino-3-phenylpropanoate, reference compound] , give its reported Purity(%) at Day 14. 98.2

***
For the compound CC(C)(C)OC(=O)c1ccccc1 [t-Butyl benzoate, reference compound] , give its reported Purity(%) at Day 14. 0.0

For the compound CCOC(=O)c1ccccc1 [Ethyl benzoate, reference compound] , give its reported Purity(%) at Day 14. 97.6

###

Experiment: Effect of concentration on the stability of the solution (purity over time)
Conditions: 1 wt % in 50% ethanol, 25° C.
Listed here: items and their measured Purity (%) at Day 7.
The answer is to be given in %; state only the numeric part.

Solved cases below.
For the molecule CC(C)OC(=O)C(N)Cc1ccccc1 (centres unmarked) [Isopropyl 2-amino-3-phenylpropanoate, reference compound] , give its reported Purity (%) at Day 7. 97.6

For the molecule CC(C)(C)OC(=O)C(N)Cc1ccccc1 (centres unmarked) [t-Butyl 2-amino-3-phenylpropanoate, reference compound] , give its reported Purity (%) at Day 7. 92.2

For the molecule CC(C)OC(=O)c1ccccc1 [Isopropyl benzoate, reference compound] , give its reported Purity (%) at Day 7. 98.4

For the molecule CC(C)(C)OC(=O)c1ccccc1 [t-Butyl benzoate, reference compound] , give its reported Purity (%) at Day 7. 0.0

Now examine the next entry.
For the molecule CCOC(=O)c1ccccc1 [Ethyl benzoate, reference compound] , give its reported Purity (%) at Day 7. 97.6

###

Listed here: items and their measured Purity(%) at day 21 (5° C.).
Test: Effect of temperature (and pH) on the stability of the solution (purity)
Assay type: physicochemical
Settings: 7% solution in water, pH 2.0, day 21, 5° C.
The answer is to be given in %; state only the numeric part.

Solved cases below.
For the compound CCN(CC)CCOC(=O)CCc1nc(-c2ccccc2)c(-c2ccccc2)o1.Cl , give its reported Purity(%) at day 21 (5° C.). 93.0

For the compound CCN(CC)CCOC(=O)CC1=C(C)C(=Cc2ccc([S+](C)[O-])cc2)c2ccc(F)cc21.Cl (centres unmarked) , give its reported Purity(%) at day 21 (5° C.). 94.7

For the compound CCN(CC)CCOC(=O)Cc1ccc(C(=O)c2ccc(C)cc2)n1C.Cl , give its reported Purity(%) at day 21 (5° C.). 93.5

For the compound CCN(CC)CCOC(=O)C(C)c1ccc2oc(-c3ccc(Cl)cc3)nc2c1.Cl (centres unmarked) , give its reported Purity(%) at day 21 (5° C.). 96.1

For the compound CCN(CC)CCOC(=O)Cc1c(C)n(C(=O)c2ccc(Cl)cc2)c2ccc(OC)cc12.Cl , give its reported Purity(%) at day 21 (5° C.). 95.9

***
For the compound CCN(CC)CCOC(=O)CCc1ccc2cc(OC)ccc2c1.Cl , give its reported Purity(%) at day 21 (5° C.). 95.9

For the compound CCN(CC)CCOC(=O)COC(=O)Cc1c(C)n(C(=O)c2ccc(Cl)cc2)c2ccc(OC)cc12.Cl , give its reported Purity(%) at day 21 (5° C.). 95.7

For the compound CCN(CC)CCOC(=O)COc1nn(Cc2ccccc2)c2ccccc12.Cl , give its reported Purity(%) at day 21 (5° C.). 93.0

###

Listed here: items and their measured Purity(%) from day 0-28.
Assay: Effect of pH value on the stability of the solution (purity)
Format: physicochemical
Conditions: day 28, pH 2.0, 7% in 25% ethanol, 25° C.
The answer is to be given in %; state only the numeric part.

Solved cases below.
For the compound CC(C)Cc1ccc([C@@H](C)C(=O)OCCC2CCNCC2)cc1.Cl (racemic) , give its reported Purity(%) from day 0-28. 87.3

For the compound CCCCN(CCCC)CCOC(=O)C(C)c1ccc(CC(C)C)cc1.Cl (racemic) , give its reported Purity(%) from day 0-28. 79.2

For the compound CC(C)Cc1ccc([C@@H](C)C(=O)OC[C@@H]2CCCN2)cc1.Cl , give its reported Purity(%) from day 0-28. 86.0

For the compound CC(C)Cc1ccc([C@@H](C)C(=O)OCCN(C)C)cc1.Cl (racemic) , give its reported Purity(%) from day 0-28. 77.4

For the compound CC(C)Cc1ccc([C@@H](C)C(=O)OCCN2CCCC2)cc1.Cl (racemic) , give its reported Purity(%) from day 0-28. 87.7

For the compound CC(C)Cc1ccc(C(C)C(=O)OCCN2CCCCC2)cc1.Cl (racemic) , give its reported Purity(%) from day 0-28. 87.0

***
For the compound CCN(CC)CCOC(=O)C(C)c1ccc(CC(C)C)cc1.Cl (racemic) , give its reported Purity(%) from day 0-28. 80.8

###

Assay: Effect of concentration on the stability of the solution (purity over time)
Conditions: 1 wt %; in water at 25° C.
metric: Purity at Day 28
Provide the measurement as a number trailed by its unit.

For the molecule CCN(CC)CCOC(=O)CCc1nc(-c2ccccc2)c(-c2ccccc2)o1.Cl , give its reported Purity at Day 28. 79.2%

For the molecule CCN(CC)CCOC(=O)Cc1sc(-c2ccccc2)nc1-c1ccc(Cl)cc1.Cl , give its reported Purity at Day 28. 89.1%

Now examine the next entry.
For the molecule CCN(CC)CCOC(=O)Cc1c(C)n(C(=O)c2ccc(Cl)cc2)c2ccc(OC)cc12.Cl , give its reported Purity at Day 28. 91.2%

###

Test: Effect of temperature (and pH) on the stability of the solution (purity)
Assay type: physicochemical
Conditions: 7% solution in water, pH 2.0, day 21, 25° C.
Given measured Purity(%) at day 21 (25° C.), output 1 (yes) if it is greater than or equal to 80% and 0 (no) if not.

Illustrative cases are given below, each with its answer.
# bool: Purity(%) at day 21 (25° C.) of CCN(CC)CCOC(=O)Cc1c(C)n(C(=O)c2ccc(Cl)cc2)c2ccc(OC)cc12.Cl >= 80% 1 (yes)

# bool: Purity(%) at day 21 (25° C.) of CCN(CC)CCOC(=O)C(C)c1ccc2oc(-c3ccc(Cl)cc3)nc2c1.Cl (stereo not drawn) >= 80% 1 (yes)

# bool: Purity(%) at day 21 (25° C.) of CCN(CC)CCOC(=O)C(C)c1ccc(-c2ccccc2)c(F)c1.Cl (racemic) >= 80% 1 (yes)

# bool: Purity(%) at day 21 (25° C.) of CCN(CC)CCOC(=O)CCc1nc(-c2ccccc2)c(-c2ccccc2)o1.Cl >= 80% 0 (no)

Then this compound:
# bool: Purity(%) at day 21 (25° C.) of CCN(CC)CCOC(=O)CCc1ccc2cc(OC)ccc2c1.Cl >= 80% 1 (yes)

Source listed as patent US20230157952A1.
